- System: Danio rerio embryo/larva
- ASSAY PROTOCOL: max % larvae generally abnormal across tested concentrations; higher = more toxic; extreme values may be limits of the assay
- ASSAY CONDITIONS: exposure: 6-8 hpf to 5 dpf, scored at 6 dpf
Respond with MET for max % larvae generally abnormal across tested concentrations values of 8% and above, NOT MET for values below.

Please tell me: is the compound O=C(O)CCC(F)(F)C(F)(F)C(F)(F)C(F)(F)C(F)(F)F [2H,2H,3H,3H-Perfluorooctanoic acid] (max tested concentration (log10 uM): 1.47712) at or over 8% in terms of max % larvae generally abnormal across tested concentrations?
MET

Test whether the compound OCC(F)(F)C(F)(F)C(F)(F)C(F)(F)C(F)(F)C(F)F [1H,1H,7H-Dodecafluoro-1-heptanol] (max tested concentration (log10 uM): 2) records max % larvae generally abnormal across tested concentrations of 8% or higher.
MET

Could you verify whether the entry O=C(O)C(F)(F)C(F)(F)F [Perfluoropropanoic acid] (max tested concentration (log10 uM): 2) shows max % larvae generally abnormal across tested concentrations of no less than 8%?
NOT MET

Reported max % larvae generally abnormal across tested concentrations reaches at least 8% for NS(=O)(=O)C(F)(F)C(F)(F)C(F)(F)C(F)(F)C(F)(F)C(F)(F)C(F)(F)C(F)(F)F [Perfluorooctanesulfonamide] (max tested concentration (log10 uM): 0) ?
MET

Given O=C(O)C(F)(F)C(F)(F)C(F)(F)C(F)(F)C(F)(F)C(F)(F)C(F)(F)C(F)(F)F [Perfluorononanoic acid] (max tested concentration (log10 uM): 2) , state whether its max % larvae generally abnormal across tested concentrations is at least 8%.
MET

Evaluate FC(F)(F)COC(OCC(F)(F)F)OCC(F)(F)F [tris(Trifluoroethoxy)methane] (max tested concentration (log10 uM): 2) : max % larvae generally abnormal across tested concentrations at minimum 8%?
NOT MET

Source: the supplement of paper PMC11281043
